Field: T/C. Provide a value for each of the molecules that follow.
- Test system: BDF1 mice, Lewis lung carcinoma iv, survival T/C
- procedure details: NCI In Vivo Anticancer Drug Screen. Data for tumor model Lewis Lung Carcinoma (intravenous) in B6D2F1 (BDF1) mice
- test parameters: endpoint: median survival time; dose: 25.0 mg/kg/injection; schedule: Q01DX009 (ip); vehicle: saline with Tween-80; higher = longer survival
Toxic doses and inconclusive results are not listed.

### Prompt Test system BDF1 mice, Lewis lung carcinoma iv, survival T/C; read-out T/C; what value for COC(=O)C(F)C(Br)C(=O)OC (stereo not given) ?
### Response 100 % of control

### Prompt Quick one: CC12CC(C(=O)O)C3(O)CC(C)(C1)CC(C)(C2)C3 (stereo not given) (tested in a mixture with another compound)
### Response 86 % of control

### Prompt Quick one: CC1(CO)C(O)CCC2(C)C1CCC1CC3CC12CCC3(O)CO (stereo not given)
### Response 110 % of control

### Prompt Quick one: Cc1cc2cc3cc(C)c(N)cc3nc2cc1N
### Response 105 % of control

### Prompt Quick one: CC1(c2ccc(Cl)cc2)OC(=O)C(=Cc2ccc([N+](=O)[O-])s2)C(=O)O1 (stereo not given)
### Response 100 % of control
